System: hiPSC-CMs (iCell-Cardiomyocytes^2)
Test parameters: 3 µM; 24h
Reported metric: Beating below threshold, number of observations/total well numbers

Q: Which Beating below threshold, number of observations/total well numbers reading was recorded for the molecule CC(C)(Sc1cc(C(C)(C)C)c(O)c(C(C)(C)C)c1)Sc1cc(C(C)(C)C)c(O)c(C(C)(C)C)c1 [Probucol] ?
A: 0/5

Q: Which Beating below threshold, number of observations/total well numbers reading was recorded for the molecule COc1cccc2c1C(=O)c1c(O)c3c(c(O)c1C2=O)C[C@@](O)(C(=O)CO)C[C@@H]3O[C@H]1C[C@H](N)[C@H](O)[C@H](C)O1 [Doxorubicin] ?
A: 0/5

Q: Which Beating below threshold, number of observations/total well numbers reading was recorded for the molecule C#Cc1cccc(Nc2ncnc3cc(OCCOC)c(OCCOC)cc23)c1 [Erlotinib] ?
A: 0/5

Q: Which Beating below threshold, number of observations/total well numbers reading was recorded for the molecule COc1cc2c(Nc3ccc(Br)cc3F)ncnc2cc1OCC1CCN(C)CC1 [Vandetanib] ?
A: 0/5

Q: Which Beating below threshold, number of observations/total well numbers reading was recorded for the molecule N=C(N)c1ccc(OCCCCCOc2ccc(C(=N)N)cc2)cc1 [Pentamidine] ?
A: 0/6

Q: Which Beating below threshold, number of observations/total well numbers reading was recorded for the molecule COc1nc(N)nc2c1ncn2[C@@H]1O[C@H](COP(=O)(N[C@@H](C)C(=O)OCC(C)(C)C)Oc2cccc3ccccc23)[C@@H](O)[C@@]1(C)O (stereo partly drawn) [BMS-986094] ?
A: 0/5

From: paper PMC10364322
